Test system: SK-MEL-2 melanoma
assay: NCI-60 one-dose screen, 48 h (100 = growth as untreated, 0 = no growth, -100 = all killed)
assay_conditions: 10 µM unless noted
Protocol: Growth inhibition of the SK-MEL-2 human tumor cell line is measured as a screen for anti-cancer activity. Cells are grown in 96 well plates and exposed to the test compound for 48 hours. Compounds are tested at a single concentration, which is 10^-5 M for most compounds. The reported endpoint is percent growth (GI% or GIPRCNT), where numbers from 0 - 100% represent growth inhibition, and numbers from -100% - 0 represent cell death. For example, a value of 40 represents 60% growth inhibition. […]
The panel holds about 83,000 compounds, 20% with a hit somewhere; the sample as a whole holds those more often.
measured_endpoint: growth (%)
Expressed in %, but write only the number.

1. O=C1CCCN1C(O)CCN(Cc1ccccc1)Cc1ccc(Cl)cc1 (stereo unspecified)
101
2. Cc1[nH]c2ccccc2c1C1=CC(=O)C=CC1=O
93.7

**Query** Could you tell me which growth is on file for CS(=O)(=O)c1ccc(C(=O)N2N=C(c3ccccc3)CC2c2ccc3c(c2)OCO3)cc1 (stereo unspecified) ?
**Result** 89.8

**Query** Could you tell me which growth is on file for CCCCCCCC/C=C\CCCCCCCC(=O)OCCCCCC ?
**Result** 123

**Query** Could you tell me which growth is on file for O=C1OC(/C=C/c2ccccc2)=NC/1=C/c1ccccc1[N+](=O)[O-] ?
**Result** 94.7

**Query** Could you tell me which growth is on file for COc1ccc2nc3cc(Cl)ccc3c(NC(=O)CSc3ccc(Cl)cc3)c2c1 ?
**Result** -88.5

**Query** Could you tell me which growth is on file for COc1cc(C2CC(=O)Nc3c2cnn3C)cc(OC)c1OC (stereo unspecified) ?
**Result** 113

**Query** Could you tell me which growth is on file for COc1ccc(-c2cc(C(=O)Nc3ccc(Br)cc3)nc3[nH]c(=O)sc23)cc1 ?
**Result** -5.01

**Query** Could you tell me which growth is on file for OC(COCc1ccccc1)COCc1ccccc1 ?
**Result** 111

**Query** Could you tell me which growth is on file for Cc1nn(-c2cccc(Cl)c2)c(C)c1N=Nc1ccc(Br)cc1 ?
**Result** 102

**Query** Could you tell me which growth is on file for O=C1/C=C/[C@@H](O)[C@@H]2C[C@@H](O)C[C@H]2/C=C/CCC[C@H]([C@@H](O)CO)O1 ?
**Result** 98.4

**Query** Could you tell me which growth is on file for COc1cc(C2CC(c3ccccc3)=NN2C=O)ccc1Oc1ccnc2cc(Cl)ccc12 (stereo unspecified) ?
**Result** 82.4

**Query** Could you tell me which growth is on file for CCCCCCCCCCCCC1CCC(=O)O1 (stereo unspecified) ?
**Result** 103

**Query** Could you tell me which growth is on file for COc1cc(C2CC(c3ccccc3)=NN2C=O)ccc1Oc1nc2c(c(=O)n(C)c(=O)n2C)n1C (stereo unspecified) ?
**Result** 101

###

Tested on: NCI-H460 lung
assay: NCI-60 one-dose screen, 48 h (100 = growth as untreated, 0 = no growth, -100 = all killed)
assay_conditions: 10 µM unless noted
About 83,000 compounds went through this panel and 20% of them were active in at least one assay; those are over-represented in the sample as a whole.
measured_endpoint: growth (%)
Expressed in %, but write only the number.

Past entries and their recorded results:
1) COc1ccc(/C(C)=N/NC(=O)c2ccc(S(C)(=O)=O)cc2)cc1OC
108
2) CCOC(=O)Nc1ccc2nc(Sc3ccc(Cl)cc3)sc2c1
25
3) Nc1c(N)c2ccccc2c2ccccc12
113
4) C[C@H](NC(=O)c1snnc1C1CC1)c1c(F)cccc1Cl
110
5) O=c1c2cc(Cl)ccc2oc2ccc(OCCCCCN3CCCCC3)cc12
10.2

# evaluate next
**Query** Could you tell me which growth is on file for COc1cc(/C=C\c2cc(/C=C\c3ccc(O)c(OC)c3)n(C(=O)Nc3ccc(C(F)(F)F)cc3)n2)ccc1O ?
**Result** 18.3
